Exercise: for every item that follows, state its recorded kL/KL/KH.
System: LAETG (Abz-LAETGK(Dnp)-CONH2)
Assay: In vitro sortase kinetics HPLC assay, LAETG substrate
Type: biochemical
Conditions: substrate 2A (LAETG)
Enter the number alone.

input: Entry under review: eSrtA(2A-5): 5mut + R99H A104H K138I K162R I182V (protein) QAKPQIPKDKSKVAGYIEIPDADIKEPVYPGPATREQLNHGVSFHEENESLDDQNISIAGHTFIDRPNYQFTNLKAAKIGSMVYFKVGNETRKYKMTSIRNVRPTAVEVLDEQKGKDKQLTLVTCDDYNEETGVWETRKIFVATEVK . Reported kL/KL/KH?
output: 5.29E+06

input: Entry under review: 2A.6B: 5mut + R99K A104H K138V D160K* K162R I182V (protein) QAKPQIPKDKSKVAGYIEIPDADIKEPVYPGPATREQLNKGVSFHEENESLDDQNISIAGHTFIDRPNYQFTNLKAAKVGSMVYFKVGNETRKYKMTSIRKVRPTAVEVLDEQKGKDKQLTLVTCDDYNEETGVWETRKIFVATEVK . Reported kL/KL/KH?
output: 1.81E+08

input: Entry under review: 2A.6C: 5mut + A104H K138P K152I D160K* K162R I182V (protein) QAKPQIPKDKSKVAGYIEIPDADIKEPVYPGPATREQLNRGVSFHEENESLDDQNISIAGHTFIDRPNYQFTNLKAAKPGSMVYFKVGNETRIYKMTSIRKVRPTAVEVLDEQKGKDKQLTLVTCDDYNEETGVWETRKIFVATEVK . Reported kL/KL/KH?
output: 1.91E+08

input: Entry under review: 2A.6A: 5mut + A104H K138V K162R I182V (protein) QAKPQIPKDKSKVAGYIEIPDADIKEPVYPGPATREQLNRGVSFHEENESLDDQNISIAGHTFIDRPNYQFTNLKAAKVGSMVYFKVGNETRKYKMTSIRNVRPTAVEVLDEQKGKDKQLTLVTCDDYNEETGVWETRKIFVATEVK . Reported kL/KL/KH?
output: 3.04E+07
